Tested on: Sporothrix schenckii
protocol description: Antifungal activity against Sporothrix schenckii after 72 to 96 hrs by broth microdilution technique
Assay type: functional
result type: MIC (µg/mL)
# output: bare number, implied unit µg/mL

**Query** # return MIC for Clc1ccccc1C(c1ccccc1)(c1ccccc1)n1ccnc1 [CLOTRIMAZOLE] , test system: Sporothrix schenckii
**Result** 4

**Query** # return MIC for COc1cc(/C=C2\SC(=S)N(Cc3ccncc3)C2=O)cc(OC)c1OC , test system: Sporothrix schenckii
**Result** 25

**Query** # return MIC for S=C(NCc1ccncc1)SCc1ccccc1 , test system: Sporothrix schenckii
**Result** 6.25

**Query** # return MIC for FC(F)(F)c1ccc(CSC(=S)NCc2ccncc2)cc1 , test system: Sporothrix schenckii
**Result** 6.25
